# System: K-562 leukemia
# METHOD NOTES: NCI tumour cell line growth inhibition, 48 h
RECORDED ENDPOINT: TGI

> print(dat)
                               query.smiles  measured.value
1             O=c1[nH]cnc2c(COCCCO)c[nH]c12        > 100 µM
2  O=C(c1ccccc1)C(C(=O)c1ccccc1)c1nc2ccccc2sc1=O         > 25 µM
3             Cn1ncc2c(Sc3ccc(Cl)cc3)ncnc21        > 100 µM
4  N#CCCN(CCC#N)CCN(CCN(CCC#N)CCC#N)CCN(CCC#N)CCC#N        > 100 µM
5  O=S1CCN(Cc2ccc(-c3ccc4ncnc(Nc5ccc(OCc6cccc(F)c6)c(Cl)c5)c4c3)o2)CC1         > 25 µM
